// provenance: patent US20240327334A1

- Test system: SARS-CoV-2 replicon
- Protocol text: microbe, parasite or virus in culture
- Assay type: cell-based
- Condition set: Severe acute respiratory syndrome coronavirus 2, Huh-7
Metric name: EC50

- Chem smiles: "C[C@@H](NC(=O)c1c(F)cccc1CNC(=O)C(=O)NCC#N)c1cccc2ccccc12"
  Tested on: "SARS-CoV-2 replicon"
  Observed: "1 to 10 µM"
- Chem smiles: "N#CCNC(=O)C(=O)NCc1ccccc1C(=O)NC1(c2cc(F)cc(-c3cnn(C4CC4)c3)c2)CC1"
  Tested on: "SARS-CoV-2 replicon"
  Observed: "> 10 µM"
- Chem smiles: "C#CCNC(=O)C(=O)NCc1ccccc1C(=O)NC1(c2cc(Cl)cc(-n3cccn3)c2)CC1"
  Tested on: "SARS-CoV-2 replicon"
  Observed: "1 to 10 µM"
- Chem smiles: "O=C(NCC#Cc1nccs1)C(=O)NCc1ccccc1C(=O)NC1(c2cc(-c3cnn(C4CC4)c3)cc(C3CC3)c2)CC1"
  Tested on: "SARS-CoV-2 replicon"
  Observed: "< 1 µM"
- Chem smiles: "N#CCNC(=O)C(=O)NCc1ccccc1C(=O)NC1(c2ccc3c4c(cccc24)CC3)CC1"
  Tested on: "SARS-CoV-2 replicon"
  Observed: "< 1 µM"
- Chem smiles: "C#CCNC(=O)C(=O)NCc1ccccc1C(=O)NC1(c2ccc3c4c(cccc24)CC3)CC1"
  Tested on: "SARS-CoV-2 replicon"
  Observed: "< 1 µM"
- Chem smiles: "C[C@@H](C#Cc1c(F)cc(F)cc1C#N)NC(=O)C(=O)NCc1ccccc1C(=O)NC1(c2ccc3nn(C)cc3c2)CC1"
  Tested on: "SARS-CoV-2 replicon"
  Observed: "< 1 µM"

====

The reader will find reported pEC50 values listed item by item below.
- Test system: SARS-CoV-2 replicon
- Protocol text: microbe, parasite or virus in culture
- Assay type: cell-based
- Condition set: Severe acute respiratory syndrome coronavirus 2, Huh-7
pEC50: −log10 of the molar value.

- Compound: "Cc1nn(C)c(C)c1-c1cc(F)c(F)c(C2(NC(=O)c3ccccc3CNC(=O)C(=O)NCC#Cc3nccs3)CC2)c1 [Example 297]"
  pEC50: "> 6.00"
- Compound: "N#CCNC(=O)C(=O)NCc1ccccc1C(=O)NC1(c2cccc(-c3cccs3)c2Cl)CC1 [Example 382]"
  pEC50: "5.00 to 6.00"
- Compound: "C[C@@H](NC(=O)c1ccccc1CNC(=O)C(=O)NCC#N)c1cc(-c2ccoc2)cc(C(F)(F)F)c1 [Example 464]"
  pEC50: "5.00 to 6.00"
- Compound: "C#CCNC(=O)C(=O)NCc1ccccc1C(=O)NC1(c2cc(-c3c(C)n[nH]c3C)cc(C(F)(F)F)c2)CC1 [Example 477]"
  pEC50: "> 6.00"
- Compound: "C#CCNC(=O)C(=O)NCc1ccccc1C(=O)NC1(c2cc(Cl)cc(-c3ccccc3F)c2)CC1 [Example 444]"
  pEC50: "> 6.00"
- Compound: "COC(=O)/C=C/CNC(=O)C(=O)NCc1ccccc1C(=O)N[C@H](C)c1cc(-c2ccoc2)cc(C(F)(F)F)c1 [Example 465]"
  pEC50: "> 6.00"
- Compound: "N#CCNC(=O)C(=O)NCc1ccccc1C(=O)NC1(c2cc(-c3cn(-c4ccccn4)nn3)cc3ccccc23)CC1 [Example 427]"
  pEC50: "> 6.00"
- Compound: "N#CCNC(=O)C(=O)NCc1ccc(OCCO)cc1C(=O)NC1(c2cccc3ccccc23)CC1 [Example 320]"
  pEC50: "> 6.00"
- Compound: "O=C(NCC#Cc1nccs1)C(=O)NCc1ccccc1C(=O)NC1(c2cc(F)cc(C(=O)Nc3ccc(F)cc3F)c2)CC1 [Example 82]"
  pEC50: "> 6.00"
- Compound: "Cc1cccnc1C#CCNC(=O)C(=O)NCc1ccccc1C(=O)NC1(c2ccc3nn(C)cc3c2)CC1 [Example 271]"
  pEC50: "> 6.00"
- Compound: "O=C(NCC#Cc1ncccc1Cl)C(=O)NCc1ccccc1C(=O)NC1(c2cc(F)cc(-c3cnn(C4CC4)c3)c2)CC1 [Example 263]"
  pEC50: "> 6.00"
- Compound: "C#CCNC(=O)C(=O)NCc1ccccc1C(=O)NC1(c2cccc(-c3cnn(C4CC4)c3)c2Cl)CC1 [Example 381]"
  pEC50: "> 6.00"
- Compound: "N#CCNC(=O)C(=O)NCc1ccccc1C(=O)NC1(c2cc(-c3cccs3)cc(Cl)c2F)CC1 [Example 304]"
  pEC50: "5.00 to 6.00"
- Compound: "O=C(NCC#Cc1nccs1)C(=O)NCc1ccccc1C(=O)NC1(c2ccnc3ccccc23)CC1 [Example 392]"
  pEC50: "5.00 to 6.00"
- Compound: "C[C@@H](NC(=O)c1ccccc1CNC(=O)C(=O)NCC#Cc1nccs1)c1cc(F)cc(-c2cnn(C(F)F)c2)c1 [Example 492]"
  pEC50: "> 6.00"

====

- System: SARS-CoV-2 replicon
- Protocol text: microbe, parasite or virus in culture
- Assay type: cell-based
- Condition set: Severe acute respiratory syndrome coronavirus 2, Huh-7
# key: entry, value: EC50

- Compound: "C#CCNC(=O)C(=O)NCc1ccccc1C(=O)NC1(c2cc(-c3cnn(C4CC4)c3)cc(Cl)c2F)CC1 [Example 302]"
  EC50: "< 1000 nM"
- Compound: "Cc1n[nH]c(C)c1-c1cc(C2(NC(=O)c3ccccc3CNC(=O)C(=O)NCC#N)CC2)c2ccccc2c1 [Example 288]"
  EC50: "1000 to 10000 nM"
- Compound: "C#CCNC(=O)C(=O)NCc1ccccc1C(=O)NC1(c2ccc(F)c(-c3cn(C)nc3C)c2)CC1 [Example 237]"
  EC50: "< 1000 nM"
- Compound: "O=C(NCC#Cc1nccs1)C(=O)NCc1ccccc1C(=O)NC1(c2cc(F)cc(-c3cnn(C4CC4)c3)c2)CC1 [Example 243]"
  EC50: "< 1000 nM"
- Compound: "Cc1n[nH]c(C)c1-c1cc(C(F)(F)F)cc(C2(NC(=O)c3ccccc3CNC(=O)C(=O)NCC#N)CC2)c1 [Example 476]"
  EC50: "1000 to 10000 nM"
- Compound: "C#CCNC(=O)C(=O)NCc1ccccc1C(=O)NC1(c2cc(F)cc(-c3cnn(C4CC4)c3)c2)CC1 [Example 226]"
  EC50: "< 1000 nM"
- Compound: "N#Cc1ccc(C#CCNC(=O)C(=O)NCc2ccccc2C(=O)NC2(c3ccc4ccccc4c3)CC2)c(F)c1 [Example 86]"
  EC50: "< 1000 nM"
- Compound: "COc1cccnc1C#C[C@H](C)NC(=O)C(=O)NCc1ccccc1C(=O)NC1(c2ccc3nn(C)cc3c2)CC1 [Example 273]"
  EC50: "< 1000 nM"
- Compound: "Cc1cc(C#N)ccc1C#CCNC(=O)C(=O)NCc1ccccc1C(=O)NC1(c2ccc3ccccc3c2)CC1 [Example 85]"
  EC50: "< 1000 nM"
- Compound: "CN(C(=O)c1cc(Cl)cc(C2(NC(=O)c3ccccc3CNC(=O)C(=O)NCC#Cc3nccs3)CC2)c1)c1ccc(F)cc1 [Example 79]"
  EC50: "< 1000 nM"
- Compound: "CC1(CNC(=O)C(=O)NCc2ccccc2C(=O)NC2(c3cccc4ccccc34)CC2)CN(C#N)C1 [Example 429]"
  EC50: "< 1000 nM"
- Compound: "C[C@@H](NC(=O)c1ccccc1CNC(=O)C(=O)NCC#Cc1nccs1)c1cc(F)cc(-c2cnn(C3CC3)c2)c1 [Example 491]"
  EC50: "< 1000 nM"
- Compound: "N#CN1CCC(F)(C(=O)NCc2ccccc2C(=O)NC2(c3cc(Br)cc4ccccc34)CC2)C1 (stereo not shown) [Example 329]"
  EC50: "< 1000 nM"
- Compound: "N#CCNC(=O)C(=O)NCc1ccccc1C(=O)NC1(c2ccc(F)c(-c3cccs3)c2)CC1 [Example 219]"
  EC50: "1000 to 10000 nM"
- Compound: "C#CCNC(=O)C(=O)NCc1ccccc1C(=O)NC1(c2cc(Cl)cc(C(=O)N(C)c3ccc(F)cc3)c2)CC1 [Example 77]"
  EC50: "1000 to 10000 nM"
- Compound: "C[C@@H](C#Cc1nccs1)NC(=O)C(=O)NCc1ccccc1C(=O)NC1(c2ccc3c(cnn3C)c2)CC1 [Example 346]"
  EC50: "< 1000 nM"

====

- System: SARS-CoV-2 replicon
- Protocol text: microbe, parasite or virus in culture
- Type: cell-based
- Condition set: Severe acute respiratory syndrome coronavirus 2, Huh-7
pEC50: −log10 of the molar value.
Reported pEC50 values for a set of molecules
Metric name: pEC50

- Molecule: "N#CCNC(=O)C(=O)NCc1ccccc1C(=O)NC1(c2cccc(-c3ccc(F)cc3)c2Cl)CC1 [Example 380]"
  Observed: "< 5.00"
- Molecule: "N#CCNC(=O)C(=O)NCc1ccccc1C(=O)NC1(c2cc(C#N)cc(-c3cccs3)c2)CC1 [Example 127]"
  Observed: "5.00 to 6.00"
- Molecule: "N#Cc1ccc(C#CCNC(=O)C(=O)NCc2ccccc2C(=O)NC2(c3ccc4ccccc4c3)CC2)nc1 [Example 190]"
  Observed: "> 6.00"
- Molecule: "COC(=O)/C=C/CCNC(=O)C(=O)NCc1ccccc1C(=O)N[C@H](C)c1cccc2ccccc12 [Example 1]"
  Observed: "> 6.00"
- Molecule: "C#CCNC(=O)C(=O)NCc1ccccc1C(=O)NC1(c2cc(-c3cn(C4CC4)nn3)cc(C(F)(F)F)c2)CC1 [Example 59]"
  Observed: "> 6.00"
